# Test: NCI Yeast Anticancer Drug Screen. Data for the mlh1 rad18 strain (AID 175)
# Condition Context: S. cerevisiae mlh1 rad18 strain growth inhibition; at 50.0 µM; hits give high values
The panel holds about 79,000 compounds, 15% with a hit somewhere; the sample as a whole holds those more often.
Measured Property: growth inhibition (%)
Answers are plain numbers, in %.

Some molecules with known growth inhibition results, for comparison:
CC(CC(C(=O)N(C)C)(c1ccccc1)c1ccccc1)[N+](C)(C)[O-] (stereo not drawn): 3.8
O=C(NN1C(=O)C(Cl)C1c1ccccc1Cl)c1ccccc1O (stereo not drawn): -36
C=C(C)c1ccccc1N: 14.1
Cc1cc(=O)oc2c(CNC(C(=O)O)C(C)C)c(O)ccc12 (stereo not drawn): -6.4

List growth inhibition for every entry below, keeping the order given.
1. CC1(C)OC(=O)CC2(C)OC12 (stereo not drawn)
2. FC(F)(F)c1nn2c(c(-c3ccccc3)c(-c3ccccc3)c3ccccc32)c1C(F)(F)F
3. C[Si](C)(C)OC=C1CCCCC1
4. COc1cc(C2C3=C(COC3=O)Oc3cc4c(cc32)OCO4)cc(OC)c1OC (stereo not drawn)

1: -19.2; 2: 31.8; 3: 9.7; 4: 3.5
